Data origin, for the record: BigSolDB 2.1

CONDITION_SET: in chloroform, 328.15 K
ATTRIBUTE_MEASURED: solubility (mole fraction)
I only need the number, thanks.

Reference set (4 entries):
INSERT INTO measurements (query_smiles, numeric_result) VALUES
  ('COc1cc(-c2cc(-c3ccc(F)cc3)[nH]c(=O)c2C#N)ccc1O', 0.00176),
  ('COc1ccc(-c2cc(-c3ccc(O)c(OC)c3)c(C#N)c(=O)[nH]2)cc1', 0.00138),
  ('COc1cc(-c2cc(-c3ccc(Br)cc3)[nH]c(=O)c2C#N)ccc1O', 0.00142),
  ('COc1cc(-c2cc(-c3ccc(O)cc3)[nH]c(=O)c2C#N)ccc1O', 0.00164);

Then there is this molecule:
Request the reported solubility (mole fraction) associated with COc1cc(-c2cc(-c3ccc(Cl)cc3)[nH]c(=O)c2C#N)ccc1O
0.00157

* * *

CONDITION_SET: in ethyl acetate, 323.15 K
Some molecules, each annotated with its measured solubility (mole fraction).

Reference set (4 entries):
INSERT INTO results (query_smiles, result) VALUES
  ('COc1ccc(-c2cc(-c3ccc(O)c(OC)c3)c(C#N)c(=O)[nH]2)cc1', 0.00145),
  ('COc1cc(-c2cc(-c3ccc(O)cc3)[nH]c(=O)c2C#N)ccc1O', 0.00134),
  ('COc1cc(-c2cc(-c3ccc(F)cc3)[nH]c(=O)c2C#N)ccc1O', 0.00178),
  ('COc1cc(-c2cc(-c3ccc(Br)cc3)[nH]c(=O)c2C#N)ccc1O', 0.00148);

Then there is this molecule:
Request the reported solubility (mole fraction) associated with COc1cc(-c2cc(-c3ccc(Cl)cc3)[nH]c(=O)c2C#N)ccc1O
0.00168

* * *

CONDITION_SET: in 1,4-dioxane, 303.15 K
ATTRIBUTE_MEASURED: solubility (mole fraction)
I only need the number, thanks.

Reference set (4 entries):
INSERT INTO measurements (query_smiles, numeric_result) VALUES
  ('COc1cc(-c2cc(-c3ccc(Cl)cc3)[nH]c(=O)c2C#N)ccc1O', 0.00156),
  ('COc1cc(-c2cc(-c3ccc(F)cc3)[nH]c(=O)c2C#N)ccc1O', 0.00164),
  ('COc1ccc(-c2cc(-c3ccc(O)c(OC)c3)c(C#N)c(=O)[nH]2)cc1', 0.00154),
  ('COc1cc(-c2cc(-c3ccc(O)cc3)[nH]c(=O)c2C#N)ccc1O', 0.00161);

Then there is this compound:
Request the reported solubility (mole fraction) associated with COc1cc(-c2cc(-c3ccc(Br)cc3)[nH]c(=O)c2C#N)ccc1O
0.00148

* * *

CONDITION_SET: in n-propanol, 308.15 K
ATTRIBUTE_MEASURED: solubility (mole fraction)
I only need the number, thanks.

Reference set (3 entries):
INSERT INTO results (query_smiles, numeric_result) VALUES
  ('COc1cc(-c2cc(-c3ccc(Cl)cc3)[nH]c(=O)c2C#N)ccc1O', 0.000882),
  ('COc1cc(-c2cc(-c3ccc(F)cc3)[nH]c(=O)c2C#N)ccc1O', 0.00095),
  ('COc1cc(-c2cc(-c3ccc(Br)cc3)[nH]c(=O)c2C#N)ccc1O', 0.000843);

Request the reported solubility (mole fraction) associated with COc1cc(-c2cc(-c3ccc(O)cc3)[nH]c(=O)c2C#N)ccc1O
0.000927

Request the reported solubility (mole fraction) associated with COc1ccc(-c2cc(-c3ccc(O)c(OC)c3)c(C#N)c(=O)[nH]2)cc1
0.000827
